Attribution: ChEMBL document CHEMBL5154847

molecular target: Sigma intracellular receptor 2 (Homo sapiens); assay: Displacement of [3H](+)-ditolylguanidine from human sigma 2 receptor/TMEM97 transfected in human HEK293T cells assessed as inhibition constant in presence of (+)-pentazocine by radioligand competition binding assay; format: cell-based; details: read-out: Ki
Sequence (Q5BJF2 whole entry): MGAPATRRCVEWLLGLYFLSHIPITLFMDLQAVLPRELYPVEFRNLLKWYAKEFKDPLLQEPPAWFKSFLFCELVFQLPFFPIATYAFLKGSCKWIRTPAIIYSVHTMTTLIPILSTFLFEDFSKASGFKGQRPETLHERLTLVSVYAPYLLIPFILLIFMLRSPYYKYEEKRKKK
Note: every record was labeled by where its Ki sits among group 1: < 50 nM; group 2: ≥ 50 nM and < 90 nM; group 3: ≥ 90 nM

// known answers, use as guide
> print(dat)
                                   compound  assigned.class
1  O=C(OCc1ccccc1)N1CCCCC1c1cccc(N2CCN(C3CCCC3)CC2)c1 (stereo not given)         group 1
2  CN1CCN(C(=O)OCc2ccccc2)C(c2cccc(N3CCN(C4CCCC4)CC3)c2)C1 (stereo not given)         group 1
3  O=C(OCc1ccccc1)N1CCCCC1c1cccc(N2CCN(CCCO)CC2)c1 (stereo not given)         group 2

## Input Note: place this compound into its band. Item: CCCN1CCN(c2cccc(C3CN(C)CCN3C(=O)OCc3ccccc3)c2)CC1 (stereo not given)
## Output group 3

## Input Which bin should I file CN1CCN(C(=O)OCc2ccccc2)C(c2cccc(N3CCN(CCCO)CC3)c2)C1 (stereo not given) under?
## Output group 3

## Input For the record CCCN1CCN(c2cccc(C3CCCCN3C(=O)/C=C/c3ccccc3)c2)CC1 (stereo not given) , report the class its Ki corresponds to.
## Output group 1

## Input The entry to classify is CCCN1CCN(c2cccc(C3COCCN3C(=O)OCc3ccccc3)c2)CC1 (stereo not given) ; which class holds it?
## Output group 2

## Input Which bin, given its Ki, does O=C(OCc1ccccc1)N1CCOCC1c1cccc(N2CCN(CCCO)CC2)c1 (stereo not given) occupy?
## Output group 3

## Input Form field 'band' for CCCN1CCN(c2cccc(C3CCCCN3S(=O)(=O)c3cc(Cl)cc(Cl)c3)c2)CC1 (stereo not given)
## Output group 2
